# TGT: α-synuclein (α-syn) (Homo sapiens, UniProt P37840)
# Construct: purchased rPeptide
# ASSAY: Thioflavin-T (ThT) fluorescence assay of α-syn fibril formation
# Assay type: biochemical
# EXPERIMENTAL_CONDITIONS: compounds at 100 μM; α-syn 6.25 μM; control 0.25% DMSO; read-out: ThT a-Syn (%), maximum thioflavin T (ThT) intensity in percentage
PROPERTY_NAME: remaining activity at 100 µM (%)

{"TEST_SMILES": "Nc1nsc2ccc([N+](=O)[O-])cc12", "REPORTED_MEASUREMENT": 36.2}
{"TEST_SMILES": "CC(=O)Nc1nsc2ccc([N+](=O)[O-])cc12", "REPORTED_MEASUREMENT": 55.6}

I: O=C(CCl)Nc1nsc2ccc([N+](=O)[O-])cc12
II: CCNC(=O)N(C(=O)NCC)c1nsc2ccc([N+](=O)[O-])cc12
Query :: Exercise: compare I and II ; which one has the greater remaining activity at 100 µM? I would appreciate it if you answered with the label of your choice.
Result :: I
(I: 45.3%, II: 16.4%)
